tested on: NCI-H292 lung cancer cells; assay: FDA drug screening, complete media vs cholesterol-free media without statin (TABLE 1); type: cell-based, human; conditions: NCI-H292 cells, cholesterol-free media without statin
Where a name gives a salt, the structure may show the parent alone.
Cholesterol-free listing for selected compounds.
A bare number is all that is needed in reply.

# compound, Cholesterol-free
rows = [
    ("CC(=O)NS(=O)(=O)c1ccc(NC(=O)c2ccccc2C(=O)O)cc1 [Phthalylsulfacetamide]", 1.274),
]

For the compound O=c1n(CCCN2CCN(c3cccc(Cl)c3)CC2)nc2ccccn12 [Trazodone (hydrochloride)] , report Cholesterol-free.
1.4

For the compound `O=C(O)CN(CCN(CC(=O)O)CC(=O)O)CC(=O)O` , report Cholesterol-free.
1.665

For the compound `COC(=O)[C@H]1[C@H]2C[C@@H]3c4[nH]c5cc(OC)ccc5c4CCN3C[C@H]2C[C@@H](OC(=O)c2cc(OC)c(OC)c(OC)c2)[C@@H]1OC` , report Cholesterol-free.
1.042

For the compound CN1[C@@H]2CC[C@H]1C[C@@H](OC(=O)c1c[nH]c3ccccc13)C2 [Tropisetron] , report Cholesterol-free.
1.242

For the compound CO/N=C(\C(=O)N[C@@H]1C(=O)N2C(C(=O)[O-])=C(COC(N)=O)CS[C@H]12)c1ccco1.[Na+] [Cefuroxime (sodium)] , report Cholesterol-free.
1.146

For the compound C#CC1(O)CC[C@H]2[C@@H]3CCC4=CC(=O)CC[C@@H]4[C@H]3CC[C@@]21CC (stereo partly shown) , report Cholesterol-free.
1.349

====

system: NCI-H292 lung cancer cells; assay: FDA drug screening, complete media vs cholesterol-free media without statin (TABLE 1); format: cell-based, human; details: NCI-H292 cells, cholesterol-free media without statin
Where a name gives a salt, the structure may show the parent alone.
Cholesterol-free listing for selected compounds.
A bare number is all that is needed in reply.

# compound, Cholesterol-free
data = [
    ("CNC[C@H](O)[C@@H](O)[C@H](O)[C@H](O)CO", 1.228),
    ("CC(=O)N1CCN(c2ccc(OCC3COC(Cn4ccnc4)(c4ccc(Cl)cc4Cl)O3)cc2)CC1 (centres unmarked)", 1.003),
    ("COc1ccc2c(c1)c(CC(=O)O)c(C)n2C(=O)c1ccc(Cl)cc1 [Indomethacin (sodium hydrate)]", 1.164),
]

Specify the recorded Cholesterol-free for CCCC(CCC)C(=O)O [Valproic acid (sodium salt)] , system: NCI-H292 lung cancer cells.
0.9818

Specify the recorded Cholesterol-free for `CCOC(=O)N[C@@H]1CC[C@@H]2[C@@H](C1)C[C@H]1C(=O)O[C@H](C)[C@H]1[C@H]2/C=C/c1ccc(-c2cccc(F)c2)cn1` , system: NCI-H292 lung cancer cells.
1.186

====

system: NCI-H292 lung cancer cells; experiment: FDA drug screening, complete media vs cholesterol-free media with simvastatin (TABLE 2); type: cell-based, human; settings: NCI-H292 cells, FDA library drug in complete media
Complete Media listing for selected molecules.
A bare number is all that is needed in reply.

Examples with their reported Complete Media follow.
# molecule, Complete Media
records = [
    ("CC(C[N+](C)(C)C)OC(N)=O.[Cl-] (centres unmarked) [Bethanechol (chloride)]", 0.9882),
    ("CCc1cc2c(cc1N1CCC(N3CCOCC3)CC1)C(C)(C)c1[nH]c3cc(C#N)ccc3c1C2=O", 1.02),
    ("Cc1nc2n(c(=O)c1CCN1CCC(c3noc4cc(F)ccc34)CC1)CCCC2O (centres unmarked)", 0.8023),
    ("CC(=O)O[C@]1(C(C)=O)CC[C@H]2[C@@H]3C=C(C)C4=CC(=O)CC[C@]4(C)[C@H]3CC[C@@]21C [Megestrol acetate]", 0.9647),
    ("CO[C@@]1(NC(=O)Cc2cccs2)C(=O)N2C(C(=O)O)=C(COC(N)=O)CS[C@@H]21", 1.5),
    ("O=C(O[C@H]1CN2CCC1CC2)N1CCc2ccccc2[C@@H]1c1ccccc1", 0.9497),
    ("CCN(CC)C(=O)c1ccc(O)c(OC)c1", 0.9141),
]

With those in mind, consider the next molecule.
Specify the recorded Complete Media for `C#C[C@]1(O)CC[C@H]2[C@@H]3CCC4=CCCC[C@@H]4[C@H]3C(=C)C[C@@]21CC` , system: NCI-H292 lung cancer cells.
1.022
